Where these numbers come from: ChEMBL document CHEMBL3044861

Tested on: Echinochloa oryzicola
Experiment: Herbicidal activity against Echinochloa oryzicola assessed as killing at 50 g/ha pre-emergence application under paddy conditions
Assay type: functional
Reported Property: Activity (%)
// units = %; emit number, no label

Consider the reported Activity for these compounds:
CCC(CC)C(C(=O)OC)S(=O)(=O)c1ncn(C(=O)N(CC)CC)n1 (stereo not drawn) ... 100
CCCC(C(=O)OC)S(=O)(=O)c1ncn(C(=O)N(CC)CC)n1 (stereo not drawn) ... 100
CCN(CC)C(=O)n1cnc(S(=O)(=O)C(C(=O)OC)C2CCCC2)n1 (stereo not drawn) ... 100
CC(C)CC(C(=O)OC(C)C)S(=O)(=O)c1ncn(C(=O)N(C)c2ccccc2)n1 (stereo not drawn) ... 20
CCC(C)C(C(=O)OC)S(=O)(=O)c1ncn(C(=O)N(CC)CC)n1 (stereo not drawn) ... 100
CC(C)CC(C(=O)OC(C)C)S(=O)(=O)c1ncn(C(=O)N2CCCC2)n1 (stereo not drawn) ... 40

Input line: Look up Activity: CCN(CC)C(=O)n1cnc(S(=O)(=O)C(C(=O)OC)C(C)C)n1 (stereo not drawn)
Output line: 100

Input line: Look up Activity: CCN(CC)C(=O)n1cnc(S(=O)(=O)C(CC(C)C)C(=O)OC(C)(C)C)n1 (stereo not drawn)
Output line: 90
